System: T1, cyno EpCAM expressed on 293 cells (cynomolgus monkey)
T1 construct: whole, on cells; also called 293 cells expressing cyno EpCAM
T1 sequence (Q1WER1 24-314): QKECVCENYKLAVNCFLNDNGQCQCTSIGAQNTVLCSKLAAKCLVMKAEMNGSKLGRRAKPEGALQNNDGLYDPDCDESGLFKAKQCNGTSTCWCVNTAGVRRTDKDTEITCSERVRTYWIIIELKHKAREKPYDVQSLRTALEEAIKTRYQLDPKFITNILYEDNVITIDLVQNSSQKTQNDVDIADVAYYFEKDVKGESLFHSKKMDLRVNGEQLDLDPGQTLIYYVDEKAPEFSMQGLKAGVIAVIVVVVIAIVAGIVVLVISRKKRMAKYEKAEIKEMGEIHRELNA
Assay text: FACS on 293 cells expressing cyno EpCAM, pH 6.0
Method: A similar FACS analysis was also carried out using 293 cells expressing cyno EpCAM. […] The EC50 values for binding to the 293 cells expressing cyno EpCAM by the humanized conditionally active anti-EpCAM antibodies are summarized in Table 11.
Measured metric: EC50 (µg/mL)
One number for each entry, in µg/mL.

Observe how each entry below is paired with its result.
Binder	EC50 / µg/mL
BAP-105.4-03-02 (antibody, V domains shown, Humanized) VH: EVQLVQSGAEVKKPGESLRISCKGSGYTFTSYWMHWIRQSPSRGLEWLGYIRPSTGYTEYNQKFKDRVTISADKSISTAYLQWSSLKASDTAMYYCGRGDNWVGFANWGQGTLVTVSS VL: EIVMTQSPATLSVSPGERATLSCSASSSISYMHWYQQKPGKAPKLLIYSTSNLASGIPPRFSGSGYGTDFTLTINNIESEDAAYYFCHQWSTYETFGQGTKVEIK	1.42
BAP-105.4-01-02 (antibody, V domains shown, Humanized) VH: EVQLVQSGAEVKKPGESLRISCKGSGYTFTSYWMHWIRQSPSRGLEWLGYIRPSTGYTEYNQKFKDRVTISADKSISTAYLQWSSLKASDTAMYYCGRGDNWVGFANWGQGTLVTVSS VL: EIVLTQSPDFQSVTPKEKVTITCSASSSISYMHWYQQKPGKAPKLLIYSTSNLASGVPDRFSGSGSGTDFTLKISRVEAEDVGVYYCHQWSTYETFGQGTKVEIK	1.26

Please examine the following record next.
get_value(item= BAP-105-01-01 (antibody, V domains shown, Non-conditionally active control; also called template antibody (WT)) VH: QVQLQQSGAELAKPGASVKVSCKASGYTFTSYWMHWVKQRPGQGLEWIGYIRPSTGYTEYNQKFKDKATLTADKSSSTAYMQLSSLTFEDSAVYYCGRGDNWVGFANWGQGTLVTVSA VL: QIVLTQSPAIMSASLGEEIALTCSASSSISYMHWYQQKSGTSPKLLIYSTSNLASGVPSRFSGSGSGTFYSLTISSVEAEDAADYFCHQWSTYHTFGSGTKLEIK , readout=EC50) returns 0.625
